- Tested on: HCT-15 colon
- procedure text: NCI-60 one-dose screen, 48 h (100 = growth as untreated, 0 = no growth, -100 = all killed)
- reported conditions: 10 µM unless noted
About 83,000 compounds went through this panel and 20% of them were active in at least one assay; those are over-represented in the sample as a whole.
Some compounds, each annotated with its measured growth.
parameter measured: growth (%)

| smiles structure | parameter measured | reported result |
| --- | --- | --- |
| Cc1ccc(S(=O)(=O)Oc2cc(OS(=O)(=O)c3ccc(C)cc3)cc(OS(=O)(=O)c3ccc(C)cc3)c2)cc1 | growth | 98.1 |
| COC(=O)[C@]12CC[C@@H](C)[C@H](C)[C@@H]1C1=CC[C@@H]3[C@@]4(C)C(C=O)=C[C@@](C)(CO)[C@@H]4[C@H](O)C[C@@]3(C)[C@]1(C)CC2 | growth | -68.1 |
| CCN(CC)CCCCCCNc1cc(OC)c(Cl)c2cccnc12 | growth | 78.4 |
| Cc1cc(C)c2c(-c3nnc(N)s3)cc(=O)oc2c1 | growth | 98.4 |
| CCc1c2c(nc3ccc(OC(=O)NCc4ccc(B5OC(C)(C)C(C)(C)O5)cc4)cc13)-c1cc3c(c(=O)n1C2)COC(=O)[C@]3(O)CC | growth | 10.4 |
| COc1cc(/C=C/C(=O)N2CCN(C(=O)c3cc(OC)c(OC)c(OC)c3)CC2)ccc1OCCCN1C(=O)c2cccc3cccc(c23)C1=O | growth | 72 |
| COc1cc(C(=O)c2cc(C)c3[nH]c4ccc(Cl)cc4c3c2C)cc(OC)c1OC | growth | 7.42 |
| Cc1ccc(NCCN(C)C)c2c(=O)c3ccccc3sc12 | growth | 6.89 |
| COc1cc(-c2n/c(=C\c3c(O)[nH]c4ccc(Cl)cc34)cc3c2=Nc2ccccc2-3)cc(OC)c1OC | growth | 28.4 |
